tested on: Potassium voltage-gated channel subfamily H member 2, brain isoform KCNH2 3.1 (human); test: qHTS for Inhibitors of KCHN2 3.1: Mutant qHTS; settings: U2OS KCNH2 3.1, thallium flux FluxOr; stronger effect = lower value; further: on the % scale 0 is the no-effect control and ±100 the full control effect
Out of some 340,000 compounds screened, about 3,300 (0.97%) were called active. The sample as a whole holds a higher share of actives than the screen did.
reported endpoint: activity change (%)

molecule: O=C(O)c1ccc(F)c(S(=O)(=O)Nc2ccccc2)c1
measured result: -0.905
//
molecule: CCN(CC)C(=O)C(C)N1c2cccc3cccc(c23)S1(=O)=O (stereo not given)
measured result: -7.96
//
molecule: CN1CCN(CCNC(=O)Nc2ccc([N+](=O)[O-])cc2)CC1
measured result: 4.38
//
molecule: CC1CN(C(=O)CCC(=O)NC2CCN(Cc3ccccc3)CC2)c2ccccc2O1 (stereo not given)
measured result: -0.725
//
molecule: CC(C)(C)C(=O)CN1C2=NCCN2c2ccccc21
measured result: 7.56
//
molecule: COc1cccc(NC(=O)N(C)C[C@@H]2Oc3ncc(Br)cc3C(=O)N([C@@H](C)CO)C[C@H]2C)c1
measured result: -4.03
//
molecule: COc1ccc(C(=O)NCC2CCCO2)cc1S(=O)(=O)NCc1ccc(Cl)cc1 (stereo not given)
measured result: -6.01
//
molecule: COc1ccc(NC(=O)N(C)C[C@H]2Oc3ncc(C#C[C@@H](C)O)cc3C(=O)N([C@H](C)CO)C[C@H]2C)cc1
measured result: -1.97
//
molecule: COc1ccccc1C(=O)Nc1ccnn1C1CCN(Cc2cnn(C)c2)CC1
measured result: -32.4
//
molecule: COc1ccc(C(=O)C2CCCN(S(=O)(=O)c3cccc(C)c3)C2)c(C)c1 (stereo not given)
measured result: -2.34
